Source of measurements: PubChem BioAssay (NCI)

Tested on: SF-268 CNS
Assay info: NCI-60 one-dose screen, 48 h
Reported conditions: 10 µM unless noted
Compounds without any hit were thinned out: in the full panel of roughly 83,000, 20% have a hit. The source made the active and inactive calls. How the source made its calls: active means growth percent below 10; inactive means the rest.
// classify into active, inactive

COc1cc(/C=C\c2cc(OC)c(OC)c(OC)c2)cc(N)c1OC    inactive
COc1cc(F)c(/C=C/c2cc(/C=C/c3cc(OC)c(OC)cc3F)on2)cc1OC    inactive
Cc1ccc(-n2cc(-c3ccccc3)c3c2N=NN2CCN=C32)cc1    inactive
O=C1/C=C/[C@@H](O)[C@@H]2C[C@@H](O)C[C@H]2/C=C/CCC[C@H](CCc2ccc3ncccc3c2)O1    inactive

What did the test return for `COc1cc2c(=O)n(CCCN(C)C)c3c4cc5c(cc4ccc3c2cc1OC)OCO5` ? inactive

What did the test return for `C=C(C)[C@@H]1CC[C@]2(C(=O)N3CCN(C)CC3)CC[C@]3(C)[C@H](CC[C@@H]4[C@@]5(C)C/C(=C/c6ccncc6)C(=O)C(C)(C)[C@@H]5CC[C@]43C)[C@@H]12` ? inactive

What did the test return for `COc1ccc(/C=C/c2nc(Nc3ccc(Cl)cc3)c3ccccc3n2)cc1` ? inactive
